Here, each record is paired with measured pKi data.
PROTOCOL SUMMARY: Displacement of [3H]-Epibatidine from alpha4beta2* nAChR in Sprague-Dawley rat cortical membranes pre-incubated for 5 mins followed by overnight incubation by radioligand liquid scintillation counter analysis
Scale: pKi equals -log10([C]), with [C] in mol/L.

Q: If you can, please state the reported pKi value of COc1ccc(-c2cncc(N3CC4CC(C3)N4)c2)cc1 .
Result: 10.92

Q: Which pKi value belongs to Brc1ccc(-c2cncc(N3CC4CC(C3)N4)c2)cc1 ?
Result: 9.82

---

TARGET: Neuronal acetylcholine receptor; alpha3/beta4 (Homo sapiens, UniProt P30926+P32297)
Sequence (P30926 whole entry): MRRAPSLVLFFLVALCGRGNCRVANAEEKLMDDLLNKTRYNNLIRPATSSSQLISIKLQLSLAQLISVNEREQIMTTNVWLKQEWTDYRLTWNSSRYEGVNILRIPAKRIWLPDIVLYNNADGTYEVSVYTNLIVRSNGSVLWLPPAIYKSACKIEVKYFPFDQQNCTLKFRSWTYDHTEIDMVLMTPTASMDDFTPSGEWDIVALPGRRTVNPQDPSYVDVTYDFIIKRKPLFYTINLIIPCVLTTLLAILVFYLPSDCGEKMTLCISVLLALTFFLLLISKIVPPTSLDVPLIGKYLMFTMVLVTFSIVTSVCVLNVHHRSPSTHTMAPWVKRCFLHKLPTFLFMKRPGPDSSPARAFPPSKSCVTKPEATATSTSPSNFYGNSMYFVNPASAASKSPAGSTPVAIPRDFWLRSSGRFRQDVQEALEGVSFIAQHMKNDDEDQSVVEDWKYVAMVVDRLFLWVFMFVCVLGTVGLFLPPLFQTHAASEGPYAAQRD
Sequence (P32297 whole entry): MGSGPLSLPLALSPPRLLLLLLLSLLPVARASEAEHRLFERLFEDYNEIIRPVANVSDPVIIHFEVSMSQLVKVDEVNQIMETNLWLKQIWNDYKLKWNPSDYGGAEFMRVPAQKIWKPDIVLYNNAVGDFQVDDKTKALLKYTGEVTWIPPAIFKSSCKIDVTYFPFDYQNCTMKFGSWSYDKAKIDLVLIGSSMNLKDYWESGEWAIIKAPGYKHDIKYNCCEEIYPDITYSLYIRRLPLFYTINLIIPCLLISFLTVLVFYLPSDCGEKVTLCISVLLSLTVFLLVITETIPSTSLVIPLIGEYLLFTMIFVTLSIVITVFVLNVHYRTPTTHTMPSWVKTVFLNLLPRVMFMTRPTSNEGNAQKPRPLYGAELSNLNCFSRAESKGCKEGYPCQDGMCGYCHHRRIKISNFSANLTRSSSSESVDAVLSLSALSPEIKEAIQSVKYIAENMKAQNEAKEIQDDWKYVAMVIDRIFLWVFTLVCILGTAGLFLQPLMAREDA
PROTOCOL SUMMARY: Displacement of [3H]-Epibatidine from human aplha3beta4 nAChR expressed in HEK293 cells pre-incubated for 5 mins followed by overnight incubation by radioligand liquid scintillation counter analysis
REPORTED METRIC: pKi
// scale note: pKi = -log10(conc_M); give the bare number

c1ccc(-c2cncc(N3CC4CC(C3)N4)c2)cc1    8.21
Clc1cncc(N2CC3CC(C2)N3)c1    8.59
Fc1ccc(-c2cncc(N3CC4CC(C3)N4)c2)cc1    8.80

--- query ---
Q: If you can, please state the reported pKi value of Clc1ccc(N2CC3CC(C2)N3)cn1 .
Result: 9.70
